Examples of compounds with documented IC50 follow.
# TARGET_DESC: M. tuberculosis RNA polymerase core enzyme, M. tuberculosis σ^A (Mycobacterium tuberculosis, UniProt P9WGY7+P9WGY9)
# MEASUREMENT_DESCRIPTION: Fluorescence-detected RNA polymerase assay, M. tuberculosis RNA polymerase
# Type: biochemical
# CONDITION_SET: read-out: IC50 M. tuberculosis RNAP

Some compounds with known IC50 results, for comparison:
COMPOUND	RESULT
CCCOc1ccc(C=C(C)C(=O)c2c(O)cc(C(C)CC/C=C/NC(=O)OC)oc2=O)s1 (mixture of isomers) [APY103]	0.02 µM
C=CCCCCc1ccc(C=C(C)C(=O)c2c(O)cc(C(C)CC/C=C/NC(=O)OC)oc2=O)s1 (mixture of isomers) [APY29]	0.5 µM

Q: Please give the documented IC50 of COC(=O)N/C=C/CCC(C)c1cc(O)c(C(=O)C(C)=Cc2ccc(CCCC(F)(F)F)s2)c(=O)o1 (mixture of isomers) [APY81]
Result: 0.05 µM

Q: Tell us which IC50 value is on record for COCCCc1ccc(C=C(C)C(=O)c2c(O)cc(C(C)CC/C=C/NC(=O)OC)oc2=O)s1 (mixture of isomers) [APY100]
Result: 1 µM

----------
Measurement record for Staphylococcus aureus ATCC 12600; quantity recorded: MIC.

# count of solved cases: 2
COMPOUND	REPORTED_METRIC	RESULT
CCC(C)Oc1ccc2c(c1)cc(C=C(C)C(=O)c1c(O)cc(C(C)CC/C=C/NC(=O)OC)oc1=O)n2C (stereo not drawn)	MIC	> 40 µg/mL
COC(=O)N/C=C/CCC(C)c1cc(O)c(C(=O)C(C)=Cc2cccc(OCCC(C)C)c2)c(=O)o1 (mixture of isomers)	MIC	> 40 µg/mL

Now take the following compound into account.
Q: Provide only the value of recorded MIC for CCCCCCc1ccc(C=C(C)C(=O)c2c(O)cc(C(C)CC/C=C/NC(=O)OC)oc2=O)cn1 (mixture of isomers)
Result: > 40 µg/mL

----------
# TARGET_DESC: S. aureus RNA polymerase core enzyme, S. aureus σ^A (Staphylococcus aureus, UniProt P47768+Q2G0N5)
# Sequence (Q2G0N5 whole entry): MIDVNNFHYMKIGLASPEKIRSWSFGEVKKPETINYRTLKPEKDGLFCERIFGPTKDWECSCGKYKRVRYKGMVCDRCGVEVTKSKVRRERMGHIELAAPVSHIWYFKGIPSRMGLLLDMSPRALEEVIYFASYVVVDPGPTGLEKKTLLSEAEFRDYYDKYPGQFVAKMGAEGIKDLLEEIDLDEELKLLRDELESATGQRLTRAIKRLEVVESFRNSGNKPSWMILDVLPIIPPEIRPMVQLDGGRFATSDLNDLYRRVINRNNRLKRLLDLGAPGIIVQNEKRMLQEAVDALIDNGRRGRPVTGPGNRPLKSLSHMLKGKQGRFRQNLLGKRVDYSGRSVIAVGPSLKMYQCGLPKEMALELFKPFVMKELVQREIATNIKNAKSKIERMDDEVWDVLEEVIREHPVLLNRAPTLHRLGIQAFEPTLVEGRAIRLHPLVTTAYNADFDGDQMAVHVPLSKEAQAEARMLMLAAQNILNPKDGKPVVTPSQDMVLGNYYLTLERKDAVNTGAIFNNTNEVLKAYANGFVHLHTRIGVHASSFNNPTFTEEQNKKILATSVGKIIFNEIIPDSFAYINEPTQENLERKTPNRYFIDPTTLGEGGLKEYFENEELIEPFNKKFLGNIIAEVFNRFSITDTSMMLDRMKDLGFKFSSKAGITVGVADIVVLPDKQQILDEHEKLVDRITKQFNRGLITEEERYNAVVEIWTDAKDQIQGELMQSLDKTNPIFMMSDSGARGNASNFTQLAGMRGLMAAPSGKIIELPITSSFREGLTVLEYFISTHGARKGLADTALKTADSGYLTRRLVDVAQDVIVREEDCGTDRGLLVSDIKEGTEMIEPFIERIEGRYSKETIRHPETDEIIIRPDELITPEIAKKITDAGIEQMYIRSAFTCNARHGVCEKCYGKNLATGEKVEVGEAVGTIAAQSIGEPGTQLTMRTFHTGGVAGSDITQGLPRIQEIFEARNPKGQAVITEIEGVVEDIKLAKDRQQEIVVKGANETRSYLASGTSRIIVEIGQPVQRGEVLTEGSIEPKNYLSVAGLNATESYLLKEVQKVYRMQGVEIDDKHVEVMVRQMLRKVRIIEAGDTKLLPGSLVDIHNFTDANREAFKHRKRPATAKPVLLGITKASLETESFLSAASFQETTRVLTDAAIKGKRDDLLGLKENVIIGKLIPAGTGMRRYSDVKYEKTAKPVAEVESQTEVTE
# Sequence (Q2FW32 whole entry, further chain): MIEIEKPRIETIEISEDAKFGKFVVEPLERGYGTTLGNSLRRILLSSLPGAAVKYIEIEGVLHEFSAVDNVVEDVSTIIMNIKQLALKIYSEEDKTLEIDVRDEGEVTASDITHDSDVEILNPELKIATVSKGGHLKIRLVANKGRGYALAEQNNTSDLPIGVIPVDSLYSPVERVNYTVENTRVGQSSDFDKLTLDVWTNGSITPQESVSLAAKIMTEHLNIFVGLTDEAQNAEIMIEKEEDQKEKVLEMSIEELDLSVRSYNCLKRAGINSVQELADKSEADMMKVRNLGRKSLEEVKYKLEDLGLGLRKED
# Sequence (P0A0J0 whole entry, further chain): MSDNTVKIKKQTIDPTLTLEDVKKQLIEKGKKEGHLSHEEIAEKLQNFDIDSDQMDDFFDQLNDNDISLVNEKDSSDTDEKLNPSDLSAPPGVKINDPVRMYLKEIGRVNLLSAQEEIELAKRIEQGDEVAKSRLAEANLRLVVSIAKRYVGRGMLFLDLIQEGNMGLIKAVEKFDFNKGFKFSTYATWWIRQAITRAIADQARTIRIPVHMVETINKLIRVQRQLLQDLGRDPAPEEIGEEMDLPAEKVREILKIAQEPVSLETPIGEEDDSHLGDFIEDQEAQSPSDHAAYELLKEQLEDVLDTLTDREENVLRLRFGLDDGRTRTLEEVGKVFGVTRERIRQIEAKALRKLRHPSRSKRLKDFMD
# Sequence (P47768 whole entry): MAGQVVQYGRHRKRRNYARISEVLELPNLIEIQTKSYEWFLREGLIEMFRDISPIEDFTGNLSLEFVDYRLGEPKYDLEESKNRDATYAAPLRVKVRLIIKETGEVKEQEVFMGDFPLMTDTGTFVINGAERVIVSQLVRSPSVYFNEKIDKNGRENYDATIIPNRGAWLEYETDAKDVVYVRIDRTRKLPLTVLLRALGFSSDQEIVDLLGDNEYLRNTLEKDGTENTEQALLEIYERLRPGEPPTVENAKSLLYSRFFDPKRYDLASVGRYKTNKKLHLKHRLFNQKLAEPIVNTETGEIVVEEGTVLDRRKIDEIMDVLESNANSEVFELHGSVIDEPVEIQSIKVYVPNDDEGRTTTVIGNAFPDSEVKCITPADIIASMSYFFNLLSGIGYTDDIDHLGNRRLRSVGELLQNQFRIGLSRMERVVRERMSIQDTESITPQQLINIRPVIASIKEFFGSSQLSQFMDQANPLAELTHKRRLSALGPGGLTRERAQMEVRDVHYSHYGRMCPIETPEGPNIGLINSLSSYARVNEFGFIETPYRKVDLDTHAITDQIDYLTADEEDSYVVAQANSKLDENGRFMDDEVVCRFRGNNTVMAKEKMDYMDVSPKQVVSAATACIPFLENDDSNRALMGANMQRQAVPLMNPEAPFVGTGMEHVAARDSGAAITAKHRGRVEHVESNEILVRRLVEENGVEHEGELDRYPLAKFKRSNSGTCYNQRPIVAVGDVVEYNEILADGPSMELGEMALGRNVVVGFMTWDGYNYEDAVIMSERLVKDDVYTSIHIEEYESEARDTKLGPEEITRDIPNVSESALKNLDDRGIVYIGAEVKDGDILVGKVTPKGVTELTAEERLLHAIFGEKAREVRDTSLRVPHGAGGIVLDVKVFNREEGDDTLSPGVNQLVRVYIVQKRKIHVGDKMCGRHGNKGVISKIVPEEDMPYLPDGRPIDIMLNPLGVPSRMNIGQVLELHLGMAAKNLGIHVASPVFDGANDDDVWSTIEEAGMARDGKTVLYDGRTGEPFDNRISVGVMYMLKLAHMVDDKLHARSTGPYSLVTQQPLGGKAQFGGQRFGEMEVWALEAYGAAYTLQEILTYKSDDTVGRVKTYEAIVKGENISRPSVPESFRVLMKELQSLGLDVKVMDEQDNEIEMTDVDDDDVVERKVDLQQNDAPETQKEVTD
# MEASUREMENT_DESCRIPTION: Fluorescence-detected RNA polymerase assay, S. aureus RNA polymerase
# Assay type: biochemical
# CONDITION_SET: read-out: IC50 S. aureus RNAP
In this section we review reported pIC50 values for a set of molecules.
By convention, pIC50 is the negative base-10 log of a molar concentration.

Consider the worked cases shown below.
MOLECULE	pIC50
CCCCc1ccc(C=C(C)C(=O)c2c(O)cc(C(C)CC/C=C/NC(=O)OC)oc2=O)c(C)c1 (mixture of isomers) [APY87]	7.15
CCCCc1ccc(C=C(CC)C(=O)c2c(O)cc(C(C)CC/C=C/NC(=O)OC)oc2=O)s1 (mixture of isomers) [APY21]	6.30
COC(=O)N/C=C/CCC(C)c1cc(O)c(C(=O)C(C)=Cc2sc(CCC(C)C)cc2C)c(=O)o1 (mixture of isomers) [APY76]	7.10

Q: Output measured pIC50 for this item: C=CCCc1ccc(C=C(C)C(=O)c2c(O)cc(C(C)CC/C=C/NC(=O)OC)oc2=O)s1 (mixture of isomers) [APY28]
Result: 7.22

Q: Report measured pIC50; entry is COC(=O)N/C=C/CCCc1cc(O)c(C(=O)C(C)=Cc2ccc(CCC(C)C)s2)c(=O)o1 (mixture of isomers) [APY91]
Result: 6.22
